B1: BTBD1 (parent)
chain: FVLGKGRGAAAAGGPQRIPAHRFV

# Variants of: B1
# experiment.summary: protein stability index of a GFP-peptide fusion (GPS, HEK-293T) (PSI 1-6); higher = more stable;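 further: lentivirally expressed fusions sorted by FACS into six bins by GFP to DsRed ratio, PSI derived from sequencing read proportions per bin multiplied by bin number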
# measurement.parameters: c terminus: a fixed tail appended
Below is a list of entries, each paired with its recorded protein stability index value.
Lab note: write the figure by itself, no unit.

# count of solved cases: 3
- changes: "A9N"
  reported.endpoint: "protein stability index"
  endpoint.value: 1.95
- changes: "G8K"
  reported.endpoint: "protein stability index"
  endpoint.value: 2.02
- changes: "G13Q"
  reported.endpoint: "protein stability index"
  endpoint.value: 2

The value of protein stability index measured for the variant F1D turned out to be 3.02
